Tested on: HCT-15 colon
test: NCI-60 one-dose screen, 48 h
conditions: 10 µM unless noted
The panel holds about 83,000 compounds, 20% with a hit somewhere; the sample as a whole holds those more often. Calls of active or inactive are those of the source. The calls were made as follows: active = growth percent below 10; inactive = the rest.
Respond with a class label; see yes = active, no = inactive

Enquiry: Hello, I am checking results. What call was entered for `CCCCC(=O)c1ccco1` ?
Return: no

Enquiry: Hello, I am checking results. What call was entered for `O=C(CSc1nnc2n1S(=O)(=O)c1ccccc1N2c1ccccc1)Nc1nc2ccc(F)cc2s1` ?
Return: no

Enquiry: Hello, I am checking results. What call was entered for `O=C1c2cccc(NCCN=Cc3cc(O)ccc3O)c2C(=O)c2c(NCCN=Cc3cc(O)ccc3O)cccc21` ?
Return: no

====

Test system: MCF7 breast
test: NCI-60 one-dose screen, 48 h (100 = growth as untreated, 0 = no growth, -100 = all killed)
conditions: 10 µM unless noted
Compounds without any hit were thinned out: in the full panel of roughly 83,000, 20% have a hit.
Would you kindly list growth for each of these compounds?
Give bare numbers, in %.

INSERT INTO results (structurestring, endpoint, value) VALUES
  ('O=c1oc2c(cnc3ccccc32)cc1-c1ccsc1', 'growth', 33.2),
  ('O=C1N[C@@H]2NC(=[N+]3CCOCC3)N[C@@H]2N1', 'growth', 95.9),
  ('Cc1ccc(Sc2oc(-c3ccc(C)cc3)nc2[P+](c2ccccc2)(c2ccccc2)c2ccccc2)cc1', 'growth', -23.8),
  ('CCn1c(=S)sc2c(Nc3ccc(F)cc3)nc(-c3cccnc3)nc21', 'growth', 73.1),
  ('Cc1nnc(NC(=O)c2nc(S(=O)(=O)Cc3ccc(F)cc3)ncc2Cl)s1', 'growth', 44.7);

Enquiry: Endpoint output: growth of `O=C(CCc1nnc(Cn2cnc3nc[nH]c3c2=O)o1)c1nc2ncccc2[nH]1` . Value?
Return: 97.2

====

Tested on: LOX IMVI melanoma
test: NCI-60 one-dose screen, 48 h
conditions: 10 µM unless noted
This is part of a sample that, as a whole, favours compounds with a hit. Of some 83,000 tested, about 20% had one in any assay. Activity calls are given as the source filed them. The calls were made as follows: active = growth percent below 10; inactive = the rest.
Respond with a class label; see active, inactive

Examples with answers:
INSERT INTO assay_data (compound, subjectoftest, assignedclass) VALUES
  ('O=C(c1ccc(-c2nc(CSc3nc4ccccc4s3)no2)cc1)N1CCSCC1', 'LOX IMVI melanoma', 'inactive'),
  ('C#COc1cccc(Nc2ncnc3ncc(NC(=O)CCl)cc23)c1', 'LOX IMVI melanoma', 'active'),
  ('Cc1ccc(NC(=S)NNC(=S)NNc2ccccc2)cc1C', 'LOX IMVI melanoma', 'inactive'),
  ('O=c1oc2c(cnc3ccccc32)cc1-c1ccsc1', 'LOX IMVI melanoma', 'inactive');

Enquiry: Hello, I am checking results. What call was entered for `O=C(Nc1nc2ccc(F)cc2s1)c1cccnc1Nc1ccc(Cl)cc1` ?
Return: inactive

Enquiry: Hello, I am checking results. What call was entered for `N#Cc1c(N)nnn1Cc1cc(=O)oc2c1ccc1ccccc12` ?
Return: inactive

Enquiry: Hello, I am checking results. What call was entered for `COC(=O)[C@H]1CCCN1C[C@@H](O)CN1C(=O)/C(=C\c2cc(OC)c(OC)c(OC)c2)c2ccccc21` ?
Return: inactive

Enquiry: Hello, I am checking results. What call was entered for `c1ccc(CNc2c3ccccc3nc3ccccc23)cc1` ?
Return: inactive

Enquiry: Hello, I am checking results. What call was entered for `CN(C)CCNc1nc2c3cc(Cl)ccc3nn2c2ccccc12` ?
Return: inactive

Enquiry: Hello, I am checking results. What call was entered for `CCOC(=O)c1cc2c(=O)oc3ccccc3c2oc1=O` ?
Return: inactive

Enquiry: Hello, I am checking results. What call was entered for `Cc1noc(C)c1C(=O)OCc1coc2ccccc2c1=O` ?
Return: inactive

Enquiry: Hello, I am checking results. What call was entered for `C=CCn1cc(-c2nc3ccccc3s2)c2cc(-c3ccc4c5c(cccc35)C(=O)N(N)C4=O)ccc21` ?
Return: inactive

Enquiry: Hello, I am checking results. What call was entered for `Cc1ccc2c(n1)C(=O)c1[nH]c3ccccc3c1C2=O` ?
Return: inactive

Enquiry: Hello, I am checking results. What call was entered for CCCCN1C(=O)/C(=c2\sc3n(c2=O)C2C(NN=3)N(CC)C(=O)N2CC)c2ccccc21 (stereo unspecified) ?
Return: inactive

Enquiry: Hello, I am checking results. What call was entered for `COc1ccc(-c2ccc3cnc4sc(-c5ccc(OC)cc5)nc4c3n2)cc1` ?
Return: inactive

Enquiry: Hello, I am checking results. What call was entered for `OCc1cccc(-c2ccc3ncc(-c4nc(NC5CC5)ncc4F)n3c2)c1` ?
Return: active

Enquiry: Hello, I am checking results. What call was entered for `O=[N+]([O-])/C(=C/C=C/c1ccccc1)c1ccccc1` ?
Return: active

Enquiry: Hello, I am checking results. What call was entered for `COc1ccc2c(O)c(/C=C3\N=Nc4ncccc43)oc2c1C[C@H]1CCNC[C@H]1F` ?
Return: active

====

Tested on: RXF 393 renal
test: NCI-60 one-dose screen, 48 h (100 = growth as untreated, 0 = no growth, -100 = all killed)
conditions: 10 µM unless noted
About 83,000 compounds went through this panel and 20% of them were active in at least one assay; those are over-represented in the sample as a whole.
Would you kindly list growth for each of these compounds?
One number for each entry, in %.

INSERT INTO results (compound, subjectoftest, value) VALUES
  ('O=C(Nc1cccnc1Nc1ccc(F)cc1)c1cn(Cc2cccc(Oc3ccccc3)c2)nn1', 'RXF 393 renal', 74.2),
  ('COc1ccc(C2=Nc3c/c(=C\c4c(O)[nH]c5ccc(Cl)cc45)ccc3=N2)cc1', 'RXF 393 renal', -27.2),
  ('CN1CCN(c2ccc(C(=O)Nc3cccc(C#Cc4cccc5[nH]nc(N)c45)c3)cc2C(F)(F)F)CC1', 'RXF 393 renal', -25.4);

Take each entry in turn and give its growth.
1. N#CC1CCc2c(c(-c3cn[nH]c3C(F)(F)F)nc3c(F)cc4[nH]ncc4c23)C1 (stereo not given)
2. Cc1cc2c(O)c(-c3cccc(Cl)c3)c3sc(=O)oc3c2cc1C
3. Nc1c(C(=O)Nc2ccncc2)sc2nc3c(cc12)CCCCCC3
4. O=C1C(Cl)=C(Nc2ccc(O)cc2)C(=O)N1Cc1ccc(Cl)cc1
5. COc1ccc(/C=C2\COc3ccc(O)c(O)c3C2=O)cc1

Return:
21.7
63.5
88.5
64.3
2.29

Take each entry in turn and give its growth.
1. COC(=O)c1cc(-c2ccccc2)[nH]c1N/N=C/c1c(Cl)cccc1Cl
2. CCCCCCCCCCCCCCCC(N)c1ccccc1 (stereo not given)

Return:
1. -18.7
2. -89.4

====

Test system: SNB-75 CNS
test: NCI-60 one-dose screen, 48 h
conditions: 10 µM unless noted
Compounds without any hit were thinned out: in the full panel of roughly 83,000, 20% have a hit. Active and inactive are the calls of the source. Rule for the calls: active = growth percent below 10; inactive = the rest.
Respond with a class label; see T (active), F (inactive)

Examples with answers:
INSERT INTO results (compound, subjectoftest, assignedclass) VALUES
  ('CCOC(=O)CNP(=O)(OC[C@@H](Cc1ccccc1)NC(=O)c1cc2ccccc2s1)Oc1ccccc1 (some centres undefined)', 'SNB-75 CNS', 'F'),
  ('CCCCN[C@H]1CC[C@@]2(C)[C@@H](CC[C@@]3(C)[C@H]2[C@H](O)C[C@H]2/C(=C(\CCC=C(C)C)C(=O)OC)[C@@H](OC(C)=O)C[C@@]23C)[C@@H]1C', 'SNB-75 CNS', 'F'),
  ('O=C1C(Cl)=C(Oc2ccccc2)C(=O)c2ccccc21', 'SNB-75 CNS', 'F'),
  ('OCc1cccc(-c2ccc3ncc(-c4nc(NC5CC5)ncc4F)n3c2)c1', 'SNB-75 CNS', 'T');

Here is another compound to look at.
Enquiry: Hello, I am checking results. What call was entered for `CCNC(=O)c1[nH]cc(-c2ccccc2)c1-c1cc(OC)c2c(c1OC)OCO2` ?
Return: F

====

Tested on: IGROV1 ovarian
test: NCI-60 one-dose screen, 48 h
conditions: 10 µM unless noted
About 83,000 compounds went through this panel and 20% of them were active in at least one assay; those are over-represented in the sample as a whole. The source made the active and inactive calls. The calls were made as follows: active = growth percent below 10; inactive = the rest.
Respond with a class label; see Yes (active), No (inactive)

Examples with answers:
INSERT INTO measurements (compound, subjectoftest, assignedclass) VALUES
  ('CC(O)c1cnc(/C=C2\SC(=S)N(Cc3ccccc3)C2=O)s1 (stereo not drawn)', 'IGROV1 ovarian', 'No'),
  ('CNC(=O)c1c(NC(=O)c2ccc(C(F)(F)F)cc2)sc2c1CCC(=O)C2', 'IGROV1 ovarian', 'Yes'),
  ('COc1ccc(/C(C)=C(/c2ccc(OCCCN(C)C)cc2)c2ccc(OC(=O)Cc3ccccc3)cc2)cc1', 'IGROV1 ovarian', 'No'),
  ('Fc1cccc(CNc2c3ccccc3nc3ccccc23)c1F', 'IGROV1 ovarian', 'No'),
  ('Cn1cc(-c2nonc2-c2c[nH]c3ccc(Br)cc23)c2cc(Br)ccc21', 'IGROV1 ovarian', 'No');

Enquiry: Hello, I am checking results. What call was entered for `COC(=O)CCC(=O)C(=O)OC` ?
Return: Yes

Enquiry: Hello, I am checking results. What call was entered for `O=S(=O)(NCCNc1nccc(-c2c(-c3cccc(F)c3)nc3occn23)n1)c1ccc(Br)cc1` ?
Return: No

Enquiry: Hello, I am checking results. What call was entered for `COc1ccc(-c2ccc3cnc4sc(-c5ccc(OC)cc5)nc4c3n2)cc1` ?
Return: No

All values here come from PubChem BioAssay (NCI).
